Tested on: blood PEA level of depressed patient
Assay: Blood PEA level of depressed patients during continuous administration (Example 2)
Type: in vivo
Settings: continuous administration periods about 6 to 24 months
Recorded Blood PEA level After continuous administration for the following molecules
assay_endpoint: Blood PEA level After continuous administration (µM)

CN(C)CCC[C@@]1(c2ccc(F)cc2)OCc2cc(C#N)ccc21: 1.73
CN[C@H]1CC[C@@H](c2ccc(Cl)c(Cl)c2)c2ccccc21: 1.47
CNCC[C@H](Oc1cccc2ccccc12)c1cccs1: 1.82
CCN(CC)C(=O)C1(c2ccccc2)CC1CN (stereo not shown): 1.94
